These data points were gathered from patent US20040029906A1.

Assay: P388D1 cell viability, camptothecin and ursolic acid alone or together (Trypan Blue, hemacytometer)
Details: mouse, % viability, Experiment 2, P388D1 cells, 6 hr incubation, 1 μM camptothecin, 0.5 μM ursolic acid
QUANTITY KIND: viability at 6 h (%)

1) C[C@H]1[C@H](C)CC[C@]2(C(=O)O)CC[C@]3(C)C(=CC[C@@H]4[C@@]5(C)CC[C@H](O)C(C)(C)[C@@H]5CC[C@]43C)[C@H]12 77

###

Assay: P388D1 cell viability, camptothecin and ursolic acid alone or together (Trypan Blue, hemacytometer)
Conditions: mouse, P388D1 cells (suspension culture), % viability, Experiment 1, P388D1 cells, 6 hr incubation, 1 μM camptothecin, 0.5 μM ursolic acid
QUANTITY KIND: viability at 6 h (%)

1. CC[C@@]1(O)C(=O)OCc2c1cc1n(c2=O)Cc2cc3ccccc3nc2-1 84
